system: Enterobacter cloacae; assay: Antibacterial activity against Enterobacter cloacae 1454 assessed as growth inhibition by microbroth dilution assay; format: functional
Numbered stars: 1 amine (or outer) side, 2 acyl side, 3 side chain; on linkers, the order of the positions; unused ones are H or OH. Square brackets hold non-standard residues; d marks the D form. Peptide text beside a SMILES is read from it. X1 = NN([C@H](Cc1ccccc1)C(=O)[*:2])[*:1]; Orn(Nα-NH2) = NCCC[C@H](NN)C(=O)O
Readout Label: MIC

[[record]]
molecule = "CC(C)C[C@@H]1NC(=O)[C@H](CCCN)N(N)C(=O)[C@H](C(C)C)NC(=O)[C@@H]2CCCN2C(=O)[C@@H](Cc2ccccc2)N(N)C(=O)[C@H](CC(C)C)NC(=O)[C@H](CCCN)N(N)C(=O)[C@H](C(C)C)NC(=O)[C@@H]2CCCN2C(=O)[C@@H](Cc2ccccc2)NC1=O (cyclo(L[dF]PV[Orn(Nα-NH2)]L[X1]PV[Orn(Nα-NH2)]))"
reported_result = "> 50 µM"


====

A collection of compounds and their measured MIC
system: Acinetobacter baumannii; assay: Antibacterial activity against Acinetobacter baumannii 5075 assessed as growth inhibition by microbroth dilution assay; type: functional; details: AB5075
Numbered stars: 1 amine (or outer) side, 2 acyl side, 3 side chain; on linkers, the order of the positions; unused ones are H or OH. Square brackets hold non-standard residues; d marks the D form. Peptide text beside a SMILES is read from it. X1 = NN([C@H](Cc1ccccc1)C(=O)[*:2])[*:1]; Orn(Nα-NH2) = NCCC[C@H](NN)C(=O)O; Orn = NCCC[C@H](N)C(=O)O
Readout Label: MIC

[[record]]
compound = "CC(C)C[C@@H]1NC(=O)[C@H](CCCN)NC(=O)[C@H](C(C)C)NC(=O)[C@@H]2CCCN2C(=O)[C@@H](Cc2ccccc2)N(N)C(=O)[C@H](CC(C)C)NC(=O)[C@H](CCCN)NC(=O)[C@H](C(C)C)NC(=O)[C@@H]2CCCN2C(=O)[C@@H](Cc2ccccc2)NC1=O (cyclo(L[dF]PV[Orn]L[X1]PV[Orn]))"
measured_target = "Acinetobacter baumannii"
readout_label = "MIC"
reported_result = "6 µM"

[[record]]
compound = "CC(C)C[C@@H]1NC(=O)[C@H](CCCN)N(N)C(=O)[C@H](C(C)C)NC(=O)[C@@H]2CCCN2C(=O)[C@@H](Cc2ccccc2)N(N)C(=O)[C@H](CC(C)C)NC(=O)[C@H](CCCN)NC(=O)[C@H](C(C)C)NC(=O)[C@@H]2CCCN2C(=O)[C@@H](Cc2ccccc2)NC1=O (cyclo(L[dF]PV[Orn]L[X1]PV[Orn(Nα-NH2)]))"
measured_target = "Acinetobacter baumannii"
readout_label = "MIC"
reported_result = "6.5 µM"

[[record]]
compound = "CC(C)C[C@@H]1NC(=O)[C@H](CCCN)NC(=O)[C@H](C(C)C)NC(=O)[C@@H]2CCCN2C(=O)[C@@H](Cc2ccccc2)N(N)C(=O)[C@H](CC(C)C)NC(=O)[C@H](CCCN)NC(=O)[C@H](C(C)C)NC(=O)[C@@H]2CCCN2C(=O)[C@@H](Cc2ccccc2)N(N)C1=O (cyclo(L[X1]PV[Orn]L[X1]PV[Orn]))"
measured_target = "Acinetobacter baumannii"
readout_label = "MIC"
reported_result = "12.5 µM"

[[record]]
compound = "CC(C)C[C@@H]1NC(=O)[C@H](CCCN)NC(=O)[C@H](C(C)C)NC(=O)[C@@H]2CCCN2C(=O)[C@@H](Cc2ccccc2)NC(=O)[C@H](CC(C)C)NC(=O)[C@H](CCCN)N(N)C(=O)[C@H](C(C)C)NC(=O)[C@@H]2CCCN2C(=O)[C@@H](Cc2ccccc2)NC1=O (cyclo(L[dF]PV[Orn]L[dF]PV[Orn(Nα-NH2)]))"
measured_target = "Acinetobacter baumannii"
readout_label = "MIC"
reported_result = "6.5 µM"

[[record]]
compound = "CC(C)C[C@@H]1NC(=O)[C@H](CCCN)NC(=O)[C@H](C(C)C)NC(=O)[C@@H]2CCCN2C(=O)[C@@H](Cc2ccccc2)NC(=O)[C@H](CC(C)C)NC(=O)[C@H](CCCN)NC(=O)[C@H](C(C)C)NC(=O)[C@@H]2CCCN2C(=O)[C@@H](Cc2ccccc2)NC1=O (cyclo(V[Orn]L[dF]PV[Orn]L[dF]P))"
measured_target = "Acinetobacter baumannii"
readout_label = "MIC"
reported_result = "6.5 µM"

[[record]]
compound = "CC(C)C[C@@H]1NC(=O)[C@H](CCCN)N(N)C(=O)[C@H](C(C)C)NC(=O)[C@@H]2CCCN2C(=O)[C@@H](Cc2ccccc2)N(N)C(=O)[C@H](CC(C)C)NC(=O)[C@H](CCCN)N(N)C(=O)[C@H](C(C)C)NC(=O)[C@@H]2CCCN2C(=O)[C@@H](Cc2ccccc2)NC1=O (cyclo(L[dF]PV[Orn(Nα-NH2)]L[X1]PV[Orn(Nα-NH2)]))"
measured_target = "Acinetobacter baumannii"
readout_label = "MIC"
reported_result = "6 µM"

[[record]]
compound = "CC(C)C[C@@H]1NC(=O)[C@H](CCCN)NC(=O)[C@H](C(C)C)NC(=O)[C@@H]2CCCN2C(=O)[C@@H](Cc2ccccc2)N(N)C(=O)[C@H](CC(C)C)NC(=O)[C@H](CCCN)N(N)C(=O)[C@H](C(C)C)NC(=O)[C@@H]2CCCN2C(=O)[C@@H](Cc2ccccc2)N(N)C1=O (cyclo(L[X1]PV[Orn]L[X1]PV[Orn(Nα-NH2)]))"
measured_target = "Acinetobacter baumannii"
readout_label = "MIC"
reported_result = "6.5 µM"

